System: Scierotinia minor
Assay: Fungal growth inhibition, treated disc on agar (SCL MIN)
Assay type: cell-based
Conditions: disc dipped in 500 mg/l, 29° C., read-out: Percent Growth Inhibition, SCL MIN
The entries below are paired with their reported inhibition at 500 µg/mL.
Write the answer as a number in %, unit excluded.

Illustrative cases are given below, each with its answer.
>  <compound>
CCCC(C#N)(CCc1ccccc1)c1ccncc1 (stereo not drawn)

>  <measurement.units>
%

>  <reported>
86

$$$$
>  <compound>
CCCC(C#N)(CCCc1ccccc1OC)c1cccnc1 (stereo not drawn)

>  <measurement.units>
%

>  <reported>
100

$$$$

Please report the recorded inhibition at 500 µg/mL for CCCC(C#N)(CCc1ccc(OCC)cc1)c1cccnc1 (stereo not drawn) .
100

Same question, CCCCC(C#N)(CCCc1ccccc1OC)c1cccnc1 (stereo not drawn) this time
100

Same question, C=CCC(C#N)(CCc1ccc(OCC)cc1)c1cccnc1 (stereo not drawn) this time
100

---

The entries below are paired with their reported Percent Reduction of Disease, URO PHA.
Test system: Uromyces phaseoli
Test: Bean rust fungus eradicant test (URO PHA)
Format: in vivo
Conditions: pinto bean, eradicant spray 2 days after inoculation, 1,000 mg/l
Write the answer as a number in %, unit excluded.

Illustrative cases are given below, each with its answer.
>  <compound>
CC(C)CCC(C#N)(CCc1ccc(F)cc1)c1cccnc1 (centres unmarked) [Compound 55]

>  <measurement.units>
%

>  <Percent Reduction of Disease, URO PHA>
0

$$$$
>  <compound>
CCCCC(C#N)(CCc1ccc(OCC)cc1)c1cccnc1.Cl (centres unmarked)

>  <measurement.units>
%

>  <Percent Reduction of Disease, URO PHA>
33

$$$$

Please report the recorded Percent Reduction of Disease, URO PHA for CCCCC(C#N)(CCc1ccc(OC)cc1)c1ccccn1 (centres unmarked) [Compound 31] .
35

Same question, C=CCC(C#N)(CCc1ccc(OC)cc1)c1ccccn1 (centres unmarked) this time
100

Same question, N#CC(CCCc1ccc(Cl)cc1)(CC1CC1)c1ccccn1 (centres unmarked) this time
85

Same question, CCCCCC(C#N)(CCc1ccc(OC)cc1)c1ccccn1 (centres unmarked) this time
100

---

Test system: Scierotinia minor
Test: Fungal growth inhibition, treated disc on agar (SCL MIN)
Assay type: cell-based
Details: disc dipped in 500 mg/l, 29° C., read-out: Percent Growth Inhibition, SCL MIN
The entries below are paired with their reported inhibition at 500 µg/mL.
Write the answer as a number in %, unit excluded.

Illustrative cases are given below, each with its answer.
>  <molecule>
COc1ccc(CCC(C#N)(CC=C(C)C)c2cccnc2)cc1 (stereo not drawn)

>  <system.tested>
Scierotinia minor

>  <inhibition at 500 µg/mL, %>
100

$$$$
>  <molecule>
CCCCCCCC(C#N)(CCc1ccccc1)c1cccnc1 (stereo not drawn)

>  <system.tested>
Scierotinia minor

>  <inhibition at 500 µg/mL, %>
100

$$$$
>  <molecule>
CCCC(C#N)(Cc1ccc(C(C)(C)C)cc1)c1cccnc1 (stereo not drawn)

>  <system.tested>
Scierotinia minor

>  <inhibition at 500 µg/mL, %>
5

$$$$
>  <molecule>
CCCC(C#N)(CCCc1ccc(Cl)cc1)c1cccnc1 (stereo not drawn)

>  <system.tested>
Scierotinia minor

>  <inhibition at 500 µg/mL, %>
92

$$$$
>  <molecule>
CCCCC(C#N)(CCc1ccccc1F)c1cccnc1 (stereo not drawn)

>  <system.tested>
Scierotinia minor

>  <inhibition at 500 µg/mL, %>
100

$$$$
>  <molecule>
C=CCC(C#N)(CCc1ccccc1F)c1cccnc1 (stereo not drawn)

>  <system.tested>
Scierotinia minor

>  <inhibition at 500 µg/mL, %>
100

$$$$
>  <molecule>
N#CC(CCCF)(CCc1ccc(F)cc1)c1cccnc1 (stereo not drawn)

>  <system.tested>
Scierotinia minor

>  <inhibition at 500 µg/mL, %>
50

$$$$
>  <molecule>
N#CC(CCc1ccccc1)(CCc1ccccc1)c1cccnc1 [A, reference compound]

>  <system.tested>
Scierotinia minor

>  <inhibition at 500 µg/mL, %>
10

$$$$

Moving on to the next molecule.
Please report the recorded inhibition at 500 µg/mL for CCCCCCC(C#N)(CCc1ccc(OCC)cc1)c1cccnc1 (stereo not drawn) .
100

---

System: Scierotinia minor
Assay: Fungal growth inhibition, treated disc on agar (SCL MIN)
Type: cell-based
Conditions: disc dipped in 500 mg/l, 29° C., read-out: Percent Growth Inhibition, SCL MIN
The entries below are paired with their reported inhibition at 500 µg/mL.
Form field: result (number plus unit)

>  <compound>
COc1ccc(CCC(C#N)(CC2CC2)c2cccnc2)cc1 (centres unmarked)

>  <system.tested>
Scierotinia minor

>  <inhibition at 500 µg/mL>
100%

$$$$
>  <compound>
CCOc1ccc(CCC(C#N)(CC(C)C)c2cccnc2)cc1 (centres unmarked)

>  <system.tested>
Scierotinia minor

>  <inhibition at 500 µg/mL>
100%

$$$$

Please report the recorded inhibition at 500 µg/mL for N#CC(CCF)(CCc1ccc(F)cc1)c1cccnc1 (centres unmarked) .
100%

Same question, CCCCC(C#N)(CCc1ccc(F)cc1)c1cccnc1 (centres unmarked) this time
98%

Same question, CC(C)=CCC(C#N)(CCc1ccccc1)c1cccnc1 (centres unmarked) this time
100%

---

Test system: Erysiphe graminis
Test: Powdery mildew of barley, systemic root uptake (BMS)
Assay type: in vivo
Conditions: 45 ml of 250 mg/l, 8 days after inoculation
recorded.metric: Percent Reduction of Disease, BMS (%)
Write the answer as a number in %, unit excluded.

>  <molecule>
CCCCC(C#N)(CCc1ccc(OCC)cc1)c1cccnc1.Cl (centres unmarked)

>  <measurement.units>
%

>  <Percent Reduction of Disease, BMS>
0

$$$$
>  <molecule>
COCC(C#N)(CCc1ccc(OC)cc1)c1cccnc1 (centres unmarked)

>  <measurement.units>
%

>  <Percent Reduction of Disease, BMS>
0

$$$$
>  <molecule>
CCCCCCC(C#N)(CCc1ccc(F)cc1)c1cccnc1 (centres unmarked)

>  <measurement.units>
%

>  <Percent Reduction of Disease, BMS>
0

$$$$
>  <molecule>
CCCCCCC(C#N)(CCc1ccc(OCC)cc1)c1cccnc1 (centres unmarked)

>  <measurement.units>
%

>  <Percent Reduction of Disease, BMS>
0

$$$$
>  <molecule>
C=CCC(C#N)(CCc1ccc(OCCCC)cc1)c1cccnc1 (centres unmarked)

>  <measurement.units>
%

>  <Percent Reduction of Disease, BMS>
0

$$$$

Moving on to the next molecule.
Please report the recorded Percent Reduction of Disease, BMS for CCCC(C#N)(CCc1ccc(F)cc1)c1cccnc1 (centres unmarked) .
84

---

The entries below are paired with their reported CER PER inhibition score.
System: Cercosporidium personatum
Assay: Fungal germination and growth, treated disc on agar, scored (CER PER)
Type: cell-based
Parameters: key: 100: Complete inhibition of germination and growth.; 80: Nearly complete inhibition but some growth.; 50: Partial inhibition of growth or, early complete inhibition but later growth begins.; 20: Some inhibition of growth, but not significant.; 0: No inhibition of growth
Settings: disc dipped in 500 mg/l, 29° C., numerical score 0-100, spore suspension
Just the number, please, no unit attached.

What is its CER PER inhibition score for Cercosporidium personatum? Entry: N#CC(CCCc1ccc(Cl)cc1)(CC1CC1)c1ccccn1 (stereo not drawn)
0

Same question, C=CCC(C#N)(CCc1ccccc1F)c1cccnc1 (stereo not drawn) this time
100

Same question, CCCC(C#N)(CCCc1ccccc1OC)c1cccnc1 (stereo not drawn) this time
100

Same question, C#CCC(C#N)(CCc1ccc(OC)cc1)c1cccnc1 (stereo not drawn) this time
0

Same question, N#CC(CCCF)(CCc1ccccc1F)c1cccnc1 (stereo not drawn) this time
0

Same question, CCOc1ccc(CCC(C#N)(CC(C)C)c2cccnc2)cc1 (stereo not drawn) this time
100

Same question, CCCCCCC(C#N)(CCc1ccc(F)cc1)c1cccnc1 (stereo not drawn) this time
100

Same question, C=CCC(C#N)(Cc1ccc(C(C)(C)C)cc1)c1cccnc1 (stereo not drawn) this time
0

Same question, C#CCC(CCc1ccccc1)(C(N)=S)c1cccnc1 (stereo not drawn) this time
100

Same question, CCCCCCC(C#N)(CCc1ccc(OC)cc1)c1cccnc1 (stereo not drawn) this time
0

Same question, CCCCCCC(C#N)(CCc1ccc(OCC)cc1)c1cccnc1 (stereo not drawn) this time
100

Same question, CCCCOc1ccc(CCC(C#N)(CCCC)c2cccnc2)cc1 (stereo not drawn) this time
0

---

System: Helminthosporium sativum
Assay: Barley spot blotch, foliar treatment (HEL SAT)
Assay type: in vivo
Conditions: Helminthosporium, foliar, 216 h, foliar, 1,000 mg/l, read-out: Percent Reduction of Disease, HEL SAT
recorded.metric: pest or weed control at 1000 µg/mL (%)
Write the answer as a number in %, unit excluded.

>  <molecule>
CCCCC(C#N)(Cc1ccc(C(C)(C)C)cc1)c1cccnc1 (stereo not shown) [Compound 19]

>  <reported>
100

$$$$

Please report the recorded pest or weed control at 1000 µg/mL for CC(C)=CCC(C#N)(CCc1ccccc1)c1cccnc1 (stereo not shown) [Compound 8] .
100

Same question, CCCCC(C#N)(CCCc1ccccc1OC)c1cccnc1 (stereo not shown) [Compound 63] this time
0

Same question, Cc1ccc(CCC(C#N)(CCC(F)(F)F)c2cccnc2)cc1 (stereo not shown) [Compound 80] this time
100

Same question, C=CCC(C#N)(CCc1ccc(OCCCC)cc1)c1cccnc1 (stereo not shown) [Compound 56] this time
100

Same question, CCCC(C#N)(CCc1ccccc1C(F)(F)F)c1cccnc1 (stereo not shown) [Compound 72] this time
83

Same question, COCC(C#N)(CCc1ccc(F)cc1)c1cccnc1 (stereo not shown) [Compound 51] this time
90
